Provide the reported ED50 of each item.
System: apomorphine-induced stereotyped behavior and climbing
Assay: Antagonism of apomorphine-induced stereotyped behavior and climbing
Format: in vivo, CF-1 mice (Charles River)
Conditions: Mus musculus; head: p.o. (text: i.p.); apomorphine 1 mg/kg s.c.; mice; read-out: Apomorphine antagonism ED50, stereotypy
Give bare numbers, in mg/kg.

O=C1C2CC(C(=O)N1CCCCN1CCN(c3cnccn3)CC1)C1C2C2C3CC4C2C4C31 (centres unmarked) [Example 13] ... 32.3
O=C1C2CC(C(=O)N1CCCCN1CCN(c3cnccn3)CC1)C1CCCC21 (centres unmarked) [Example 3] ... 30.9
O=C1C2CC(C(=O)N1CCCCN1CCN(c3cccc(C(F)(F)F)c3)CC1)C1CCCC21 (centres unmarked) [Example 11] ... 42.4
O=C1C2CC(C(=O)N1CCCCN1CCN(c3ncccn3)CC1)C1C3CCC(C3)C21 (centres unmarked) [Example 15] ... 2.54

With those in mind, consider the next compound.
So what's the measured ED50 for this one? COc1ccccc1N1CCN(CCCCN2C(=O)C3CC(C2=O)C2C3C3C4CC5C3C5C42)CC1 (centres unmarked) [Example 10]
10
